protein stability index reference
B1: TRIM39 (parent)
chain: CKACITRWWEDLERDFPCPVCRKT

Variants of: B1
TEST_DETAILS: protein stability index of a GFP-peptide fusion (GPS, HEK-293T) (PSI 1-6); higher = more stable;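 also: lentivirally expressed fusions sorted by FACS into six bins by GFP to DsRed ratio, PSI derived from sequencing read proportions per bin multiplied by bin number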
PARTICULARS: c terminus: a fixed tail appended

MUTATION_STRING | protein stability index
K2V | 3.53
W9P | 4.3

Quick one: protein stability index for R22L ?
3.81

Next variant: W8A
4.07

Next variant: I5L
4.25

Next variant: T24W
3.02

Next variant: R7W
3.97

Next variant: W8H
4.66

Next variant: P19A
3.15
